The reader will find reported Urine Na % of control values listed item by item below.
# System: absorption of sodium from the intestinal lumen
# test_protocol: Inhibition of intestinal sodium absorption: urinary sodium (uNa) 16 h after single oral dose in rats
# Assay type: in vivo, rat
# measurement_parameters: oral gavage, dose 10 mg/kg, 16 h post-dose
Supply the numeric figure in %, leaving out any unit text.

>>> measured_result("CN1Cc2c(Cl)cc(Cl)cc2[C@@H](c2cccc(S(=O)(=O)NCCOCCOCCNC(=O)NCCCCNC(=O)NCCOCCOCCNS(=O)(=O)c3cccc([C@@H]4CN(C)Cc5c(Cl)cc(Cl)cc54)c3)c2)C1 [compound 39]")
68

Prompt: Please report Urine Na % of control with absorption of sodium from the intestinal lumen for item O=C(CCOCCOCCOCCOCCOCCC(=O)NCCOCCOCCNS(=O)(=O)c1ccc(OC2c3ccccc3CC2N2CCCCC2)cc1)NCCOCCOCCNS(=O)(=O)c1ccc(OC2c3ccccc3CC2N2CCCCC2)cc1 (racemic) [compound 54] .
Response: 75

====

# tested_target: Human NHE3 (Homo sapiens, UniProt P48764)
# Construct: expressed in transfected cells; host or cells: Opossum kidney (OK) cells (ATCC), electroporation
# Sequence (P48764 26-834): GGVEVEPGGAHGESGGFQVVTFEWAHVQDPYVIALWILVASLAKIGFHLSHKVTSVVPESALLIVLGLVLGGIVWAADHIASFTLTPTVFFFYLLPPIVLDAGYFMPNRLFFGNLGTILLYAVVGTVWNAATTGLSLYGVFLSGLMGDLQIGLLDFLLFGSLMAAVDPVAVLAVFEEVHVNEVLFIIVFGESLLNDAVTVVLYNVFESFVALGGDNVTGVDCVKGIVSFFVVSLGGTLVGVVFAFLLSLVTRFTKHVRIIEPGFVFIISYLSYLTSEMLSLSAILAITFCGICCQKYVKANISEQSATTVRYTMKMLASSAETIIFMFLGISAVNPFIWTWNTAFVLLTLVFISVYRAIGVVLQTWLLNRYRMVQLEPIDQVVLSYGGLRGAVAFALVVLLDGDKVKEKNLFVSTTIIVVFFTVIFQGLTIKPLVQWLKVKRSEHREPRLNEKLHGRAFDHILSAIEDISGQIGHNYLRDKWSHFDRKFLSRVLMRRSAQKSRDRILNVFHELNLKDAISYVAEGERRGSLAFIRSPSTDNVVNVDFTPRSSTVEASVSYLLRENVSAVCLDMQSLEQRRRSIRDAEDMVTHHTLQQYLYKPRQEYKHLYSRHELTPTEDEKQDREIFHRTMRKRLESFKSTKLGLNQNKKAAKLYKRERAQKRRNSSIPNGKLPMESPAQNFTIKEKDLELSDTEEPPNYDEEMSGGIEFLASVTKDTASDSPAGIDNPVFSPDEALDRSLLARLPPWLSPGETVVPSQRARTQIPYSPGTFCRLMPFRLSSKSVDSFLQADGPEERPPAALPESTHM
# test_protocol: Cell-based NHE3 activity under prompt conditions (OK cells, BCECF pH recovery), human NHE3
# measurement_parameters: prompt conditions
endpoint: Prompt Human NHE3 pIC50

>>> measured_result("CC(C)(C(=O)NCCOCCOCCOCCNS(=O)(=O)c1ccc(O[C@H]2c3ccccc3C[C@@H]2N2CCCCC2)cc1)C(=O)NCCOCCOCCOCCNS(=O)(=O)c1ccc(O[C@H]2c3ccccc3C[C@@H]2N2CCCCC2)cc1 [compound 119]")
7.80
>>> measured_result("N=C(N)Nc1nc(-c2ccc(OCCOCCOCCOCCNC(=O)NCCOCCOCCNC(=O)CN(CCN(CC(=O)O)CC(=O)NCCOCCOCCNC(=O)NCCOCCOCCOCCOc3ccc(-c4nc(NC(=N)N)nc5ccc(Cl)cc45)cc3)CC(=O)O)cc2)c2cc(Cl)ccc2n1 [compound 35]")
8.30
>>> measured_result("O=C(NCCCCNC(=O)NCCOCCOCCNS(=O)(=O)c1ccc(O[C@H]2c3cc(Cl)cc(Cl)c3C[C@@H]2N2CC[C@@H](O)C2)cc1)NCCOCCOCCNS(=O)(=O)c1ccc(O[C@H]2c3cc(Cl)cc(Cl)c3C[C@@H]2N2CC[C@@H](O)C2)cc1 [compound 87]")
8.20

Prompt: Using known records, supply Prompt Human NHE3 pIC50 for CN1Cc2c(Cl)cc(Cl)cc2[C@H](c2cccc(S(=O)(=O)NCCOCCOCCNC(=O)CCC(CCC(=O)NCCOCCOCCNS(=O)(=O)c3cccc([C@@H]4CN(C)Cc5c(Cl)cc(Cl)cc54)c3)(CCC(=O)NCCOCCOCCNS(=O)(=O)c3cccc([C@@H]4CN(C)Cc5c(Cl)cc(Cl)cc54)c3)NC(N)=O)c2)C1 [compound 133]
Response: 7.30
